protocol.summary: Henry solubility constant Hcp at 298.15 K (mol/(m3 Pa))
study.conditions: reference: Dewulf et al. (1995)
measured.quantity: Henry solubility constant Hcp
Keep the answer to the number alone.

Inquiry: // returns reported Henry solubility constant Hcp for input Cc1ccc(C)cc1 [1,4-dimethylbenzene]
Reply text: 0.0017

Inquiry: Ok, now Cc1ccccc1 [methylbenzene]
Reply text: 0.0018

Inquiry: Ok, now ClC(Cl)(Cl)Cl [tetrachloromethane]
Reply text: 0.00038

###

protocol.summary: Henry solubility constant Hcp at 298.15 K (mol/(m3 Pa))
study.conditions: reference: Dewulf et al. (1995)
Henry solubility constant Hcp by entry:
Keep the answer to the number alone.

Use the examples below as a reference point.
CC(Cl)(Cl)Cl [1,1,1-trichloroethane]; 0.00067
ClC(Cl)=C(Cl)Cl [tetrachloroethene]; 0.00069

Inquiry: // returns reported Henry solubility constant Hcp for input c1ccccc1 [benzene]
Reply text: 0.0021

Inquiry: Ok, now Cc1cccc(C)c1 [1,3-dimethylbenzene]
Reply text: 0.0016

Inquiry: Ok, now Cc1ccccc1C [1,2-dimethylbenzene]
Reply text: 0.0024

Inquiry: Ok, now CCc1ccccc1 [ethylbenzene]
Reply text: 0.0015

Inquiry: Ok, now ClC=C(Cl)Cl [trichloroethene]
Reply text: 0.0012
